B1: USP39 (parent)
chain: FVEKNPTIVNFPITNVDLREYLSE

Variants of: B1
methodDescription: protein stability index of a GFP-peptide fusion (GPS, HEK-293T) (PSI 1-6); higher = more stable;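 note: lentivirally expressed fusions sorted by FACS into six bins by GFP to DsRed ratio, PSI derived from sequencing read proportions per bin multiplied by bin number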
particulars: c terminus: a fixed tail appended
Form field: protein stability index (one value per entry).
Lab note: write the figure by itself, no unit.

• FVEKNPTIVNFPITNEDLREYLSE [V16E] = 2.04
• FVEKNPTIVNFPITNLDLREYLSE [V16L] = 2.05
• FVEKNQTIVNFPITNVDLREYLSE [P6Q] = 1.98
• FVEHNPTIVNFPITNVDLREYLSE [K4H] = 2.03

Exercise: Reported protein stability index for FVEKNGTIVNFPITNVDLREYLSE [P6G] : what is it?
Solution: 1.95

Exercise: Query: protein stability index; subject: FVEKNPTIVNFPITNVDLCEYLSE [R19C]
Solution: 2.05

Exercise: Name the recorded protein stability index for FVEKNPTIVNFPITNQDLREYLSE [V16Q] .
Solution: 1.99

Exercise: Quick one: protein stability index for FVEKNPTIVNFPITNVDLREYLSQ [E24Q] ?
Solution: 2.04
